target.desc: T1, drUvrD FL (WT) (Deinococcus radiodurans, UniProt Q9RTI9 1-745)
T1 sequence: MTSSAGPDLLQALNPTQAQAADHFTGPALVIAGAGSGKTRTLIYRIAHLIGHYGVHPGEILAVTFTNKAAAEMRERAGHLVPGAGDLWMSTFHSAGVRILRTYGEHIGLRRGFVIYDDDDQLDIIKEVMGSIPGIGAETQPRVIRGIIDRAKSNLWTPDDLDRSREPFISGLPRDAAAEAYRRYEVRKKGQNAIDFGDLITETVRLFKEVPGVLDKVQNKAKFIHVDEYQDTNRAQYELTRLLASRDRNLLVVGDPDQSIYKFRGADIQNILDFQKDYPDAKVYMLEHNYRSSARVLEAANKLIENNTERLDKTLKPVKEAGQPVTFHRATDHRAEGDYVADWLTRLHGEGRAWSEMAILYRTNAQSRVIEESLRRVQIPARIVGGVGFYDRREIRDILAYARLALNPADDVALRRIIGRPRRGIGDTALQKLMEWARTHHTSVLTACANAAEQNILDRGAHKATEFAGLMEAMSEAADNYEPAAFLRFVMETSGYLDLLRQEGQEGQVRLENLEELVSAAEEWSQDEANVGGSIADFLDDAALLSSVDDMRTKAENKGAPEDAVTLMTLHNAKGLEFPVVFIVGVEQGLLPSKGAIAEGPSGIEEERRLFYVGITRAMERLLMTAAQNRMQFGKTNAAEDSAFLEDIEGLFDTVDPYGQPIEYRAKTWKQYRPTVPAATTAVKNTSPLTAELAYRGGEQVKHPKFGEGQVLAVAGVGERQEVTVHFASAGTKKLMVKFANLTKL
test.method.notes: fluorescence anisotropy; 1 mM AMPPNP; Fluorescence anisotropy: buffer A (composition not in material) + 0.05% Tween 20, 0.1 mg/mL BSA, 1 mM AMPPNP; 2.5 nM DNA, 0-8 µM protein, 80 µl, room temperature; single-site fit
condition.details: protein: recombinant; tags: N-terminal His-tag cleaved with TEV (pET151d); label: fluorescein (internal dT12); 25 bp duplex, 3' overhang 15 nt (dT15) on strand 2; other end blunt
value.kind: Kd (µM)
Enter your answer as a number in µM; do not include the unit.

The binder listed as 3'-tailed dsDNA (H1T12/H3-15) (dsDNA, fluorescein-dT at position 12 of strand 1) DNA 1: TCGGTACGACCTGCGAGCACTGCTT DNA 2: AAGCAGTGCTCGCAGGTCGTACCGATTTTTTTTTTTTTTT shows Kd equal to 0.36
